# Test system: SR leukemia
# Assay method text: NCI tumour cell line growth inhibition, 48 h
Field: TGI. Provide a value for each of the compounds that follow.

Solved entries:
1) O=[N+]([O-])c1ccc(-c2nnc(C34CC5CC(CC(C5)C3)C4)o2)cc1 = > 100 µM
2) O=Nc1c(O)cc(Nc2ccc(Br)cc2)c2ccccc12 = 72.4 µM
3) COc1cc(OC(C)=O)cc2c(OC(C)=O)ccc(OC(C)=O)c12 = > 100 µM

Answer for every listed entry: what is its TGI? The entries follow.
1. CCOC(=O)C1(C(=O)OCC)Nc2cccnc2N(C)N1
2. Cn1c(=O)c2c(nc(-n3nc(-c4ccc(Cl)cc4)cc3N)n2C)n(C)c1=O
3. CCOC(=O)N(Cc1cccs1)c1cc(OC)c(OC)c(OC)c1
4. O=C(NCCO)Nc1ccc(-c2nc(N3CCOCC3)c3cccn3n2)cc1
5. Cc1ccc(N=Nc2c(O)c(C(=O)O)cc3ccccc23)cc1C

> 100 µM
> 100 µM
65.5 µM
> 100 µM
> 100 µM

* * *

Field: TGI. Provide a value for each of the molecules that follow.
# Test system: OVCAR-8 ovarian
# Assay method text: NCI tumour cell line growth inhibition, 48 h

1) Oc1cccc2ccc(N/N=C/c3cc(CN4CCCCC4)c(O)c4ncccc34)nc12 = 2.06 µM

Answer for every listed entry: what is its TGI? The entries follow.
1. N=c1c2c(C(N)=O)cn(C3OC(CO)C(O)C3O)c2ncn1O (stereo not given)
2. Cc1nc(N)nc(N)c1-c1ccc(Cl)c(Cl)c1
3. CCCCCCCCCCCC(=O)Oc1c(Cl)cc(Cl)c(OC(=O)C(=O)Oc2c(Cl)cc(Cl)c(OC(=O)CCCCCCCCCCC)c2Cl)c1Cl
4. Cc1csc(=S)n1OC(=O)NC1CCCCC1
5. COc1ccc(/C(C#N)=C/c2ccccc2OC)cc1
6. CCN(CC)CC(C)Nc1ccc([N+](=O)[O-])c2sc3ccccc3c(=O)c12 (stereo not given)
7. Cc1ccccc1[P+](Cc1ccccc1)(c1ccccc1)c1ccccc1
8. COC(=O)[C@@]1(C)CC[C@]2(C)CC[C@]3(C)C4=CC=C5C(=CC(=O)C(O)=C5C)[C@]4(C)[C@@H](O)C[C@@]3(C)[C@@H]2C1

0.607 µM
> 100 µM
> 100 µM
> 100 µM
> 100 µM
> 100 µM
13.2 µM
28.4 µM

Answer for every listed entry: what is its TGI? The entries follow.
1. CCS(=O)(=O)Nc1ccc(Nc2c3ccccc3nc3ccccc23)c(OC)c1
2. C[C@]12CC[C@@H]3c4ccc(OP(=O)(O)O)cc4CC[C@H]3[C@@H]1CCC2=O
3. C#CCOCn1cnc2c(Cl)ncnc21
4. CCCCC(CC)CN=C(N)NC(N)=NCCCCCCN=C(N)NC(N)=NCC(CC)CCCC (stereo not given)
5. Cn1cnc(CCc2ccccc2)n1
6. Cn1cccc1-c1cc(-c2cccs2)nc(N)c1C#N

1. 7.71 µM
2. > 100 µM
3. > 100 µM
4. 5.19 µM
5. > 100 µM
6. > 100 µM

* * *

# Tested on: DU-145 prostate
# Assay method text: NCI tumour cell line growth inhibition, 48 h
Field: GI50. Provide a value for each of the molecules that follow.

1) O=C1/C(=C\c2c[nH]c3ccccc23)c2ccccc2N1c1c(Cl)cccc1Cl = 1.74 µM

Answer for every listed entry: what is its GI50? The entries follow.
1. CC[C@@H](C(=O)O)C1CC[C@H](C)C([C@@H](C)[C@H](O)[C@H](C)C(=O)[C@H](CC)C2O[C@]3(C=C[C@@H](O)[C@]4(CC[C@@](C)(C5CC[C@](O)(CC)[C@H](C)O5)O4)O3)[C@H](C)C[C@@H]2C)O1 (some centres undefined)
2. COc1ccc(/C(C#N)=C/c2ccccc2OC)cc1

0.805 µM
27.7 µM

* * *

Field: TGI. Provide a value for each of the compounds that follow.
# System: HOP-92 NSCLC
# Assay method text: NCI tumour cell line growth inhibition, 48 h

1. CN(CC1(CO)CCC1)c1cc(Cl)nc(N)n1 = > 100 µM

Answer for every listed entry: what is its TGI? The entries follow.
1. CN(C)C(=O)OC(Cn1cncn1)c1ccc(Cl)cc1Cl (stereo not given)
2. CCN(CC)c1ccc(C(=O)c2ccccc2C(=O)O)c(O)c1
3. Cc1cccc2nc3c(C(=O)NCCN(C)C)cccc3cc12
4. N#CC12C(=O)N3C(=NC(c4ccccc4)NC3c3ccccc3)C1(C#N)C(c1ccccc1)NC1=C2CCC1 (stereo not given)
5. C[C@@H]1C[C@H]2CC[C@H](O2)[C@H](C)C(=O)O[C@@H](C)C[C@@H]2CC[C@@H](O2)[C@@H](C)C(=O)O[C@H](C)C[C@H]2CC[C@H](O2)[C@H](C)C(=O)O[C@@H](C)C[C@@H]2CC[C@@H](O2)[C@@H](C)C(=O)O1

["> 100 µM", "> 100 µM", "3.99 µM", "> 100 µM", "0.524 µM"]

Answer for every listed entry: what is its TGI? The entries follow.
1. COc1cc(C2C(C(=O)O)=C(CO)Oc3cc4c(cc32)OCO4)cc(OC)c1O (stereo not given)
2. CC(C)c1cc(-c2n[nH]c(=O)n2-c2ccc3c(ccn3C)c2)c(O)cc1O
3. COc1cc2c(c(OC)c1)C1c3ccccc3NC(=O)N1CC2 (stereo not given)
4. COc1ccc(OC)c(NC(=O)C2=C(C)NC(C)=C(C(=O)Nc3cc(OC)ccc3OC)C2c2ccccc2)c1
5. Cc1csc(=S)n1OC(=O)NC1CCCCC1

> 100 µM
0.0484 µM
> 100 µM
> 100 µM
> 100 µM

Answer for every listed entry: what is its TGI? The entries follow.
1. NNC(=O)/C(=C/c1ccc(Cl)cc1Cl)NC(=O)c1ccccc1
2. CCCCCCCCCCCCCCCCN1CC2CCCCC2C1 (stereo not given)

1: > 100 µM; 2: 6.52 µM

* * *

# Tested on: HOP-92 NSCLC
# Assay method text: NCI tumour cell line growth inhibition, 48 h
Assay endpoint: GI50

Solved entries:
1) NCCOCCOCCNc1nc(Cc2ccccc2)nc(NCCCN2CCCC2=O)n1 = > 100000 nM
2) COc1ccc2sc3c(NCCCN(C)C)nc4ccccc4c3c(=O)c2c1 = 1030 nM
3) N#Cc1cccc(CSc2ncnc3nc[nH]c23)c1 = 16500 nM

GET /values?readout=GI50&item= COc1ccc(-c2csc(N(C(=O)N3CCN(c4cc5c(cc4F)c(=O)c(C(=O)O)cn5C4CC4)CC3)c3ccccc3)n2)cc1
597 nM

* * *

# Test system: SK-MEL-28 melanoma
# Assay method text: NCI tumour cell line growth inhibition, 48 h
Assay endpoint: TGI

1) COC12OC3(C4OC41)C(C(=O)O[C@H]3CO[Si](C)(C)C(C)(C)C)C2C(=O)Oc1ccccc1 (some centres undefined) = > 100 µM
2) CN(CC1(CO)CCC1)c1cc(Cl)nc(N)n1 = > 100 µM
3) COc1cccc(-c2c(C#N)c(N)nc3c2CCS(=O)(=O)c2ccc(C)cc2-3)c1 = > 100 µM
4) COC(O)C(=O)c1c2c(cc3c1CC1(Cc4cc5c(cc4C1)CCC5)C3)CCC2 (centres undefined) = 35.7 µM

Answer for every listed entry: what is its TGI? The entries follow.
1. COc1ccc2c(c1)/C(=C\c1c(C)nc3sccn13)C(=O)N2
2. O=C(N/N=C(/c1ccccc1)C(F)(F)F)c1ccncc1
3. O=C(CN1CCOCC1)Nc1nc(-c2ccc(Cl)cc2)cs1
4. CCOC(=O)c1cc(NS(=O)(=O)c2ccccc2)cc(C(=O)OCC)c1
5. COc1cc(C(=O)C/C(CCCC(=O)Nc2ccccc2[N+](=O)[O-])=N/NC(=O)c2cc3ccccc3cc2O)ccc1O

> 100 µM
> 100 µM
74.8 µM
> 100 µM
> 100 µM

* * *

# Test system: SK-MEL-2 melanoma
# Assay method text: NCI tumour cell line growth inhibition, 48 h
Field: GI50. Provide a value for each of the molecules that follow.

Solved entries:
1) COc1ccc2c(c1)cn1c3ccc(O)cc3nc(N)c21 = 270 nM
2) N#Cc1c(N2CCCC2)[nH]c(=O)c(C(c2c(Cl)cccc2Cl)c2c(O)c(C#N)c(N3CCCC3)[nH]c2=O)c1O = 16600 nM
3) COc1cc2c(c(OC)c1)C1c3ccccc3NC(=O)N1CC2 (stereo unspecified) = 2850 nM
4) COc1ccc(/C(C#N)=C/c2ccccc2OC)cc1 = 4680 nM

Answer for every listed entry: what is its GI50? The entries follow.
1. COc1ccc(/C=C2\CCCC3=C2N=C2SC(C)=NN2C3c2ccc(OC)c(OC)c2)cc1OC (stereo unspecified)
2. Cc1ccccc1[P+](Cc1ccccc1)(c1ccccc1)c1ccccc1
3. Cn1cc(-c2ccc3occ(-c4cccc(-c5ccncc5)c4)c3n2)cn1
4. N=C(N)c1ccc(-c2ccc(-c3cc(Cl)cc(Cl)c3)o2)nc1
5. Nc1ccccc1C#C/C=C\C#Cc1cccs1
6. CC1(C)CC(=O)c2c(C(F)(F)F)nn(-c3ccc(C(N)=O)c(NC4CCC(OC(=O)CN)CC4)c3)c2C1 (stereo unspecified)
7. COc1ccc(/C(=C2/O[C@@H]([C@H]3COC(C)(C)O3)[C@H]3OC(C)(C)O[C@@H]23)c2cc(OC)c(OC)c(OC)c2)cc1O
8. Cn1cccc1-c1cc(-c2cccs2)nc(N)c1C#N

1: 22200 nM; 2: 2670 nM; 3: 758 nM; 4: 2090 nM; 5: 16200 nM; 6: 68.3 nM; 7: 3260 nM; 8: > 100000 nM

Answer for every listed entry: what is its GI50? The entries follow.
1. CC1SC(c2ccccc2)N(CCc2cccs2)C1=O (stereo unspecified)
2. O=C1/C(=C\c2c[nH]c3ccccc23)c2ccccc2N1c1c(Cl)cccc1Cl
3. Oc1cccc2ccc(N/N=C/c3cc(CN4CCCCC4)c(O)c4ncccc34)nc12

["3420 nM", "1940 nM", "28.8 nM"]

Query the reported GI50 for SK-MEL-2 melanoma; item: O=C1c2cccnc2C(=O)c2nc3cc(N4CCN(C5CC5)CC4)ccc3nc21
1610 nM
